target: GSK3α (GST-full length GSK3α) (Homo sapiens (Human), UniProt P49840); assay: GSK3α TR-FRET kinase assay; assay type: biochemical; settings: 1 nM GSK3α, 4 μM ATP, 30 minute preincubation; geometric mean; read-out: GSK3-A TR-FRET BIOCHEMICAL (TR-FRET); GMean; IC50
Sequence (P49840 whole entry): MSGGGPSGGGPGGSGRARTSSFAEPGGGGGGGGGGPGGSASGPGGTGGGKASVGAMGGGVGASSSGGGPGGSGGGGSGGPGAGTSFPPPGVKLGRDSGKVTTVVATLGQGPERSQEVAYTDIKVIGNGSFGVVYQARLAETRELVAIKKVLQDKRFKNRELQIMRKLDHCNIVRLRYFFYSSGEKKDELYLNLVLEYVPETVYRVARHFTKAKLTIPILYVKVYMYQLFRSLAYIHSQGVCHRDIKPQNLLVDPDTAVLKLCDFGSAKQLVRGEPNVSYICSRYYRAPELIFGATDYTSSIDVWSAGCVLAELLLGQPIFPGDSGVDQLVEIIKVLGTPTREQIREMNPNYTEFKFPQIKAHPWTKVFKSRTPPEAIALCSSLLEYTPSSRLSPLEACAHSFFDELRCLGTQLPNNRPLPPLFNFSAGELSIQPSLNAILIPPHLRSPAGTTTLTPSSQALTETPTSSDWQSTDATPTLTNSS
experimental-readout: IC50

# compound, measured-on, value-measured
data = [
    ("C[C@H]1CC(=O)C2=C(C1)Nc1n[nH]cc1[C@]2(C)c1ccccc1", "GSK3α (GST-full length GSK3α) (Homo sapiens (Human), UniProt P49840)", "100 to 1000 nM"),
    ("CCC1(c2cccc(-c3ccnc(C)c3)c2)C2=C(CC(C)(C)CC2=O)Nc2n[nH]cc21 (stereo not drawn) [Compound 865170]", "GSK3α (GST-full length GSK3α) (Homo sapiens (Human), UniProt P49840)", "1000 to 5000 nM"),
    ("CCC1(c2cccc(-c3cnn(C)c3C)c2)C2=C(CC(C)(C)NC2=O)Nc2n[nH]c(C(F)(F)F)c21 (stereo not drawn)", "GSK3α (GST-full length GSK3α) (Homo sapiens (Human), UniProt P49840)", "≤ 100 nM"),
    ("CCC1(c2cccc(-c3ccncc3F)c2)C2=C(CC(C)(C)NC2=O)Nc2n[nH]c(C(F)(F)F)c21 (stereo not drawn)", "GSK3α (GST-full length GSK3α) (Homo sapiens (Human), UniProt P49840)", "≤ 100 nM"),
    ("CCC1(c2cccc(C(F)(F)F)c2)C2=C(CCN(c3cnc(OC)nc3)C2=O)Nc2n[nH]c(C)c21 (stereo not drawn)", "GSK3α (GST-full length GSK3α) (Homo sapiens (Human), UniProt P49840)", "≤ 100 nM"),
    ("CCC1(c2cccc(-c3cn[nH]c3)c2)C2=C(CC(C)(C)NC2=O)Nc2n[nH]c(C(F)(F)F)c21 (stereo not drawn)", "GSK3α (GST-full length GSK3α) (Homo sapiens (Human), UniProt P49840)", "≤ 100 nM"),
    ("CC[C@]1(c2cccc(-c3cncn3C)c2)C2=C(CC(C)(C)NC2=O)Nc2n[nH]cc21", "GSK3α (GST-full length GSK3α) (Homo sapiens (Human), UniProt P49840)", "100 to 1000 nM"),
    ("CCC1(c2cccc(-c3ccnn3C)c2)C2=C(CC(C)(COC)NC2=O)Nc2n[nH]cc21 (stereo not drawn) [Compound 947905]", "GSK3α (GST-full length GSK3α) (Homo sapiens (Human), UniProt P49840)", "≤ 100 nM"),
    ("CCC1(c2cccc(-c3cnn(C)c3)c2)C2=C(CC(C)(C)CC2=O)Nc2n[nH]cc21 (stereo not drawn) [Compound 819576]", "GSK3α (GST-full length GSK3α) (Homo sapiens (Human), UniProt P49840)", "100 to 1000 nM"),
    ("CC1(c2ccccc2)C2=C(CC3(CCCC3)CC2=O)Nc2n[nH]cc21 (stereo not drawn)", "GSK3α (GST-full length GSK3α) (Homo sapiens (Human), UniProt P49840)", "100 to 1000 nM"),
    ("CCC1(c2cccc(-c3ccnn3C)c2)C2=C(CC3(CCC3)NC2=O)Nc2n[nH]cc21 (stereo not drawn)", "GSK3α (GST-full length GSK3α) (Homo sapiens (Human), UniProt P49840)", "100 to 1000 nM"),
    ("CCC1(c2cccc(CN(C)C(C)=O)c2)C2=C(CC(C)(C)CC2=O)Nc2n[nH]cc21 (stereo not drawn)", "GSK3α (GST-full length GSK3α) (Homo sapiens (Human), UniProt P49840)", "100 to 1000 nM"),
    ("CCC1(c2cccc(COC)c2)C2=C(CC(C)(C)CC2=O)Nc2n[nH]cc21 (stereo not drawn) [Compound 810360]", "GSK3α (GST-full length GSK3α) (Homo sapiens (Human), UniProt P49840)", "≤ 100 nM"),
    ("CC[C@@]1(c2cccc(-c3ccnc4cnccc34)c2)C2=C(CC(C)(C)NC2=O)Nc2n[nH]cc21", "GSK3α (GST-full length GSK3α) (Homo sapiens (Human), UniProt P49840)", "1000 to 5000 nM"),
    ("CCC1(c2cccc(C(F)(F)F)c2)C2=C(CCN(c3cncnc3)C2=O)Nc2n[nH]cc21 (stereo not drawn) [Compound 948379]", "GSK3α (GST-full length GSK3α) (Homo sapiens (Human), UniProt P49840)", "≤ 100 nM"),
    ("CC[C@]1(c2cccc(-c3ccnc4nc(C)ccc34)c2)C2=C(CC(C)(C)NC2=O)Nc2n[nH]cc21", "GSK3α (GST-full length GSK3α) (Homo sapiens (Human), UniProt P49840)", "≤ 100 nM"),
    ("CCC1(c2cccc(-c3cnn4c3CCCC4)c2)C2=C(CC(C)(C)NC2=O)Nc2n[nH]c(C(F)(F)F)c21 (stereo not drawn)", "GSK3α (GST-full length GSK3α) (Homo sapiens (Human), UniProt P49840)", "≤ 100 nM"),
    ("CC[C@]1(c2cccc(-c3cnn4c3CCCC4)c2)C2=C(CC(C)(C)NC2=O)Nc2n[nH]c(C)c21", "GSK3α (GST-full length GSK3α) (Homo sapiens (Human), UniProt P49840)", "100 to 1000 nM"),
    ("CCC1(c2cccc(-c3ccnc(C)c3)c2)C2=C(CC(C)(C)N(C)C2=O)Nc2n[nH]cc21 (stereo not drawn) [Compound 949009]", "GSK3α (GST-full length GSK3α) (Homo sapiens (Human), UniProt P49840)", "> 5000 nM"),
    ("CCC1(c2cccc(-c3c(C)nn(C)c3C)c2)C2=C(CC(C)(C)NC2=O)Nc2n[nH]c(C(F)(F)F)c21 (stereo not drawn)", "GSK3α (GST-full length GSK3α) (Homo sapiens (Human), UniProt P49840)", "≤ 100 nM"),
    ("CCC1(c2cccc(-c3ccncc3)c2)C2=C(CC(C)(C)CC2=O)Nc2n[nH]cc21 (stereo not drawn) [Compound 801413]", "GSK3α (GST-full length GSK3α) (Homo sapiens (Human), UniProt P49840)", "≤ 100 nM"),
    ("CCC1(c2cccc(N3CCCC3=O)c2)C2=C(CC(C)(C)CC2=O)Nc2n[nH]cc21 (stereo not drawn)", "GSK3α (GST-full length GSK3α) (Homo sapiens (Human), UniProt P49840)", "≤ 100 nM"),
    ("CC[C@]1(c2ccccc2)C2=C(C[C@@H](C(F)(F)F)CC2=O)Nc2n[nH]cc21", "GSK3α (GST-full length GSK3α) (Homo sapiens (Human), UniProt P49840)", "100 to 1000 nM"),
    ("CCC1(c2cccc(-c3cncn3C)c2)C2=C(CC(C)(C)NC2=O)Nc2n[nH]cc21 (stereo not drawn)", "GSK3α (GST-full length GSK3α) (Homo sapiens (Human), UniProt P49840)", "≤ 100 nM"),
    ("CCC1(c2ccccc2)C2=C(CC3(CCC3)CC2=O)Nc2n[nH]cc21 (stereo not drawn)", "GSK3α (GST-full length GSK3α) (Homo sapiens (Human), UniProt P49840)", "100 to 1000 nM"),
    ("CCC1(c2cccc(Br)c2)C2=C(CC(C)(C)C(F)C2=O)Nc2n[nH]cc21 (stereo not drawn) [Compound 835312]", "GSK3α (GST-full length GSK3α) (Homo sapiens (Human), UniProt P49840)", "> 5000 nM"),
    ("CC1(C)CC(=O)C2=C(C1)Nc1n[nH]cc1C21CCc2c(Cl)cccc21 (stereo not drawn)", "GSK3α (GST-full length GSK3α) (Homo sapiens (Human), UniProt P49840)", "≤ 100 nM"),
    ("CCC1(c2cccc(-c3cnn(C)c3)c2)C2=C(CC(C)CC2=O)Nc2n[nH]cc21 (stereo not drawn) [Compound 823720]", "GSK3α (GST-full length GSK3α) (Homo sapiens (Human), UniProt P49840)", "≤ 100 nM"),
    ("CC[C@]1(c2cccc(-c3c(C)nn(C)c3C)c2)C2=C(CC(C)(C)NC2=O)Nc2n[nH]cc21", "GSK3α (GST-full length GSK3α) (Homo sapiens (Human), UniProt P49840)", "≤ 100 nM"),
    ("CC[C@]1(c2cccc(-c3ccncc3F)c2)C2=C(CC(C)(C)NC2=O)Nc2[nH]nc(C(F)(F)F)c21", "GSK3α (GST-full length GSK3α) (Homo sapiens (Human), UniProt P49840)", "100 to 1000 nM"),
]

---

biological target: GSK3b (GST-full length GSK3b) (Homo sapiens (Human), UniProt P49841); assay: GSK3b TR-FRET kinase assay; assay type: biochemical; details: 1 nM GSK3b, 2 μM ATP, 30 minute preincubation; geometric mean; read-out: GSK3-B TR-FRET BIOCHEMICAL (TR-FRET); GMean; IC50
Sequence (P49841 whole entry): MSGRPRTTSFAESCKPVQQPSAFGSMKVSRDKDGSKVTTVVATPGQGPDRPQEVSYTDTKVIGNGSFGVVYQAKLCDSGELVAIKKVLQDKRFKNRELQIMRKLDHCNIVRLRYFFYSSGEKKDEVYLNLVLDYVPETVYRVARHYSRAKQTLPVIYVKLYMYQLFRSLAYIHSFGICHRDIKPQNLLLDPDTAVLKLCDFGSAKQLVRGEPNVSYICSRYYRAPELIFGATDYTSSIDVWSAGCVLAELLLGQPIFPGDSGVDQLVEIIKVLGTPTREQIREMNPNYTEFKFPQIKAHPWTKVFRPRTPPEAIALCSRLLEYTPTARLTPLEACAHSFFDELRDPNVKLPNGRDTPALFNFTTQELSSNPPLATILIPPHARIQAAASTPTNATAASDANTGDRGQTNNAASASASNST
pIC50: −log10 of the molar value.

# compound, pIC50
data = [
    ("CCC1(c2ccn(C)n2)C2=C(CC(C)(C)CC2=O)Nc2n[nH]cc21 (stereo not drawn)", "< 5.30"),
    ("CCC1(c2cccc(-c3cnn(C)c3)c2)C2=C(CC(C)(C)CC2=O)Nc2n[nH]c(C(F)(F)F)c21 (stereo not drawn) [Compound 811567]", "6.00 to 7.00"),
    ("CCC1(c2cccc(Cl)c2)C2=C(CC(C)(C)CC2=O)Nc2n[nH]c(C(F)(F)F)c21 (stereo not drawn)", "< 5.78"),
    ("CCC1(c2cccc(CN3CCCCC3)c2)C2=C(CC(C)(C)CC2=O)Nc2n[nH]cc21 (stereo not drawn)", "< 5.30"),
    ("CCC1(c2cccc(-c3cn(C)nc3C)c2)C2=C(CC(C)(C)NC2=O)Nc2n[nH]c(Cl)c21 (stereo not drawn)", "≥ 7.00"),
    ("CC[C@@]1(c2cccc(-c3ccnc4cnccc34)c2)C2=C(CC(C)(C)NC2=O)Nc2n[nH]cc21", "< 5.30"),
    ("CC[C@@]1(c2cccc(-c3cnn4c3CCCC4)c2)C2=C(CC(C)(C)NC2=O)Nc2[nH]nc(C(F)(F)F)c21", "≥ 7.00"),
    ("CCC1(c2cccc(-c3cnn(C)c3)c2)C2=C(CC(C)CC2=O)Nc2n[nH]cc21 (stereo not drawn) [Compound 823720]", "6.00 to 7.00"),
    ("CC[C@]1(c2cccc(-c3cnn(C(C)(C)C)c3)c2)C2=C(CC(C)(C)NC2=O)Nc2n[nH]cc21", "6.00 to 7.00"),
    ("CCC1(c2cccc(-c3ccncc3)c2)C2=C(CC(C)CC2=O)Nc2n[nH]cc21 (stereo not drawn) [Compound 874315]", "< 5.30"),
    ("CCC1(c2cccc(COC)c2)C2=C(CC(C)(C)CC2=O)Nc2n[nH]cc21 (stereo not drawn) [Compound 810360]", "6.00 to 7.00"),
    ("CCC1(c2cccc(C(F)(F)F)c2)C2=C(CC(C)CC2=O)Nc2n[nH]cc21 (stereo not drawn) [Compound 810453]", "< 5.30"),
    ("CC[C@]1(c2cccc(-c3ccnc4cc(F)ccc34)c2)C2=C(CC(C)(C)NC2=O)Nc2n[nH]cc21", "6.00 to 7.00"),
    ("CC[C@@]1(c2ccccc2)C2=C(C[C@H](C(F)(F)F)CC2=O)Nc2n[nH]cc21", "< 5.30"),
    ("CCC1(c2cccc(S(C)(=O)=O)c2)C2=C(CC(C)(C)NC2=O)Nc2n[nH]c(C(F)(F)F)c21 (stereo not drawn)", "≥ 7.00"),
    ("CC[C@@]1(c2ccccc2)C2=C(C[C@](C)(COC)CC2=O)Nc2n[nH]cc21", "< 5.30"),
    ("CC[C@@]1(c2cccc(N3CCOCC3)c2)C2=C(CC(C)(C)CC2=O)Nc2n[nH]cc21", "< 5.30"),
    ("CCC1(c2cccc(N3CCCCC3)c2)C2=C(CC(C)(C)CC2=O)Nc2n[nH]c(C(F)(F)F)c21 (stereo not drawn)", "5.30 to 6.00"),
    ("CCC1(c2cccc(-c3cnn(C)c3)c2)C2=C(CC(C)(C)CC2=O)Nc2n[nH]c(C(F)(F)F)c21 (stereo not drawn) [Compound 801445]", "≥ 7.00"),
    ("CCC1(c2cccc(N3CCNCC3)c2)C2=C(CC(C)(C)CC2=O)Nc2n[nH]cc21 (stereo not drawn)", "< 5.30"),
    ("CC[C@]1(c2cccc(-c3cnn4c3CCCC4)c2)C2=C(CC(C)(C)NC2=O)Nc2n[nH]c(C)c21", "5.30 to 6.00"),
    ("CC[C@]1(c2cccc(-c3c(F)cncc3Cl)c2)C2=C(CC(C)(C)NC2=O)Nc2n[nH]cc21", "≥ 7.00"),
    ("CC[C@@]1(c2cccc(-c3ccncc3)c2)C2=C(CC(C)(C)CC2=O)Nc2n[nH]cc21", "< 5.30"),
    ("CCC1(c2cccc(-c3ccnc(C)c3)c2)C2=C(CC(C)(C)NC2=O)Nc2n[nH]c(C(F)(F)F)c21 (stereo not drawn) [Compound 948773]", "< 5.30"),
    ("CCC1(c2cccc(-c3cnn(C)c3)c2)C2=C(CC(C)(C)NC2=O)Nc2n[nH]c(Cl)c21 (stereo not drawn)", "≥ 7.00"),
    ("CCC1(c2cccc(-c3ccnc4ccc(C)cc34)c2)C2=C(CC(C)(C)NC2=O)Nc2n[nH]cc21 (stereo not drawn)", "< 5.30"),
    ("CCC1(c2cccc(N3CCCCC3)c2)C2=C(CC(C)(C)NC2=O)Nc2n[nH]c(C)c21 (stereo not drawn)", "6.00 to 7.00"),
    ("CC[C@]1(c2ccc(C)cc2)C2=C(CC(C)(C)CC2=O)Nc2n[nH]cc21", "< 5.30"),
    ("CCC1(c2cccc(C(F)(F)F)c2)C2=C(CC(C)(C)CC2=O)Nc2n[nH]cc21 (stereo not drawn)", "≥ 7.00"),
    ("CCC1(c2cccc(OC)c2)C2=C(CC(C)CC2=O)Nc2n[nH]cc21 (stereo not drawn)", "6.00 to 7.00"),
]
